Molecular target: Nuclear receptor coactivator 3 (Homo sapiens) (UniProt Q9Y6Q9)
Sequence (Q9Y6Q9 whole entry, looked up): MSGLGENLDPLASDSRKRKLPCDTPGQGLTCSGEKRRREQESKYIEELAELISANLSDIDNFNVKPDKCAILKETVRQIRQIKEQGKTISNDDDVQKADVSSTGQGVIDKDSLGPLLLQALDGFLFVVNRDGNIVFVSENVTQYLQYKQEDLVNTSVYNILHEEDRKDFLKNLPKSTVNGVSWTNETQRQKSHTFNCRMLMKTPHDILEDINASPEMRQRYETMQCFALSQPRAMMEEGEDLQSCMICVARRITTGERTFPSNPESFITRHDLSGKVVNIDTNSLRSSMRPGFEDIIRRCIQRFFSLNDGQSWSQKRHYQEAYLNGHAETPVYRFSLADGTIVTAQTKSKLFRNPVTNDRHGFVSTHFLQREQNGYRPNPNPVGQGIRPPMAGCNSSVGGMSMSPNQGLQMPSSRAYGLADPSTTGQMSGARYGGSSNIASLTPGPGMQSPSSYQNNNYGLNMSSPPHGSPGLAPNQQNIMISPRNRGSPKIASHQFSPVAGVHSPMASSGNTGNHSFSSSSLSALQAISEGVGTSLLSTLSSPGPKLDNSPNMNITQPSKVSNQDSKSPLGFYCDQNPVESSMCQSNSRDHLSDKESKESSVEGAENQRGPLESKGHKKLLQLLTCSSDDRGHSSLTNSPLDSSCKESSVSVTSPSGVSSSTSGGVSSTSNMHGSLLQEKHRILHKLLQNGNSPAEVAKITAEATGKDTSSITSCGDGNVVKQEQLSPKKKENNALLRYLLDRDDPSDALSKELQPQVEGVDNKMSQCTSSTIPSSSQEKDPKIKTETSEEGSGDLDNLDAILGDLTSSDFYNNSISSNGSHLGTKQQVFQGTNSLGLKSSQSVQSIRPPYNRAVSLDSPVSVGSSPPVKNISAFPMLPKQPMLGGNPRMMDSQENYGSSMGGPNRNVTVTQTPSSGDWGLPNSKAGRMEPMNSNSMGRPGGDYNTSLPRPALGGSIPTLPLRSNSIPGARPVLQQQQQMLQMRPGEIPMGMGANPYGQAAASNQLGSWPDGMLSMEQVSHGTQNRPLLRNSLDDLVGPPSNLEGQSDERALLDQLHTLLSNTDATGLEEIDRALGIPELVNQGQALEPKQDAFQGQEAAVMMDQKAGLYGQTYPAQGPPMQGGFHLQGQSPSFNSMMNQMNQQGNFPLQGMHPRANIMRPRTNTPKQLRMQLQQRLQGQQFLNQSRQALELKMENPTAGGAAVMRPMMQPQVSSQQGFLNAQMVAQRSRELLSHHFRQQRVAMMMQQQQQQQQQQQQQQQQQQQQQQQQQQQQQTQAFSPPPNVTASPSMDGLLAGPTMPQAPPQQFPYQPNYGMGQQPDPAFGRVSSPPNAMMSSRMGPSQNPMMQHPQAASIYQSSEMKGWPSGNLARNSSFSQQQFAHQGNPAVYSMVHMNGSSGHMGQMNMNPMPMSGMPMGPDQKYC
Test: SRC3 coactivator transcriptional activity inhibitors, confirmation, cell-based, luminescence, quadruplicate (AID 588792);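 note: 0% = DMSO treated cells and 100% = gossypol at 36 µM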
Settings: HEK293 GAL4-SRC3 luciferase reporter, at 3.6 µM, active compounds read high
readout_name: inhibition (%)
Report as a plain number; the unit % is understood.

{"compound": "O=C(c1ccccc1)N1CCN(Cc2c[nH]c3ccccc23)CC1", "units": "%", "measured_value": 8.59}
{"compound": "CCN(c1ccc(OC)cc1)c1ncnc2nc[nH]c12", "units": "%", "measured_value": 66.8}
{"compound": "COc1ccc2[nH]c(=O)c3c(c2c1)OC(C)(C)C=C3", "units": "%", "measured_value": 77.6}
{"compound": "CCC(=O)N1CCN(c2ccnc3cc(Cl)ccc23)CC1", "units": "%", "measured_value": 29.1}
{"compound": "COC(=O)c1ccccc1NC1=C/C(=N\\S(=O)(=O)c2cccs2)c2ccccc2C1=O", "units": "%", "measured_value": 2.2}
{"compound": "Cc1cc(/C=C2\\Sc3ccccc3N2C)cc(C)[n+]1CC1CCCO1 (configuration not stated)", "units": "%", "measured_value": 37.1}

Q: Query (compound): CC1CCC(C(C)C)C(OC(=O)Cn2c(-c3ccc(Br)cc3)[n+](C)c3ccccc32)C1 (configuration not stated) ; field requested: inhibition
Ans: 3.76

Q: Query (compound): Cc1cc(C)cc(NS(=O)(=O)c2ccc3c(c2)c(=O)n(C)c(=O)n3C)c1 ; field requested: inhibition
Ans: 55.2

Q: Query (compound): Cc1cc(C(=O)Nc2ccncc2)c(C)o1 ; field requested: inhibition
Ans: 8.35
